- Tested on: HCT116 cells
- test: Cancer cell viability assay (resazurin), HCT116
- Type: cell-based
- condition-details: HCT116, 100 μM, two independent experiments; 100 µM
quantity-name: percentage cell viability (%)
Give a bare numeral; the unit % is implied.

# count of solved cases: 2
Problem: Which percentage cell viability is reported with HCT116 cells for this entry: "Cc1cc(C)n(-c2cc(F)c(CC(=O)Nc3noc4c3CCCC4)c(F)c2)n1" ?
Solution: 43.25

Problem: Which percentage cell viability is reported with HCT116 cells for this entry: "Cc1nc(-c2ccc(CC(=O)Nc3noc4c3CCCC4)c(C)c2)c(C)[nH]1" ?
Solution: 6.65

Further cases:
Problem: Which percentage cell viability is reported with HCT116 cells for this entry: "Cc1nc(-c2ccc(CC(=O)Nc3noc4c3CCCC4)cc2)c(C)[nH]1" ?
Solution: 23.58

Problem: Which percentage cell viability is reported with HCT116 cells for this entry: "Cc1nn(-c2ccc(CC(=O)Nc3noc4c3CCCC4)cc2)c2ccccc12" ?
Solution: 2.45

Problem: Which percentage cell viability is reported with HCT116 cells for this entry: "Cc1nn(-c2ccc(CC(=O)Nc3noc4c3CCCC4)cc2)c2ccc(N)cc12" ?
Solution: 30.89

Values from paper PMC11836371
